TESTED_ON: T1, 4H2646-AA
T1 chain: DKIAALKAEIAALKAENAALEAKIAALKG
EXPERIMENT_SUMMARY: two-hybrid library CCmax;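 further: natural log of median RNA to DNA barcode read ratio; higher means stronger binding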
CONDITION_NOTES: mean of both orientations
PROPERTY_MEASURED: interaction score

Below are worked cases with known answers.
binder="DKIAALEAENAALEAEIAALKAENAALEG [4H2187-AA]" readout_number=-1.38
binder="DKIAALEAKNAALKAEIAALKAKNAALKG [4H2512-AA]" readout_number=-1.05
binder="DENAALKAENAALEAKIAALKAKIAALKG [4H1710-AA]" readout_number=-1.37
binder="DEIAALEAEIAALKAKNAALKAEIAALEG [4H121-AA]" readout_number=2.21
binder="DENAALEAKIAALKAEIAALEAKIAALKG [4H1350-AA]" readout_number=-0.455

a: DENAALKAKNAALKAEIAALEAEIAALEG [4H1985-AA]
b: DENAALEAEIAALEAKIAALKAENAALKG [4H1068-AA]
Hi there, can you help? I need to know whether a or b has lower measured interaction score. Answer by quoting the chosen item's label.
b

These data points were gathered from paper PMC10397247.
